Details: in n-propanol, 278.15 K
REPORTED_PROPERTY: solubility (mole fraction)
A bare number is all that is needed in reply.

What does the record list as solubility (mole fraction) for `COc1cc(/C=C/C(=O)CC(=O)/C=C/c2ccc(O)c(OC)c2)ccc1O` ?
0.0023

====

Details: in ethanol, 278.15 K
REPORTED_PROPERTY: solubility (mole fraction)
A bare number is all that is needed in reply.

What does the record list as solubility (mole fraction) for `COc1cc(/C=C/C(=O)CC(=O)/C=C/c2ccc(O)c(OC)c2)ccc1O` ?
0.000407

====

Conditions: in isopropanol, 303.15 K
REPORTED_PROPERTY: solubility (mole fraction)

What does the record list as solubility (mole fraction) for `COc1cc(/C=C/C(=O)CC(=O)/C=C/c2ccc(O)c(OC)c2)ccc1O` ?
0.00284

====

Conditions: in ethanol, 318.15 K
REPORTED_PROPERTY: solubility (mole fraction)
A bare number is all that is needed in reply.

What does the record list as solubility (mole fraction) for `COc1cc(/C=C/C(=O)CC(=O)/C=C/c2ccc(O)c(OC)c2)ccc1O` ?
0.00128

====

Conditions: in water, 318.15 K
REPORTED_PROPERTY: solubility (mole fraction)
A bare number is all that is needed in reply.

What does the record list as solubility (mole fraction) for `COc1cc(/C=C/C(=O)CC(=O)/C=C/c2ccc(O)c(OC)c2)ccc1O` ?
9.32e-08

====

Settings: in isopropanol, 318.15 K
REPORTED_PROPERTY: solubility (mole fraction)

What does the record list as solubility (mole fraction) for `COc1cc(/C=C/C(=O)CC(=O)/C=C/c2ccc(O)c(OC)c2)ccc1O` ?
0.004

====

Conditions: in ethanol, 313.15 K
REPORTED_PROPERTY: solubility (mole fraction)
A bare number is all that is needed in reply.

What does the record list as solubility (mole fraction) for `COc1cc(/C=C/C(=O)CC(=O)/C=C/c2ccc(O)c(OC)c2)ccc1O` ?
0.00113

====

Details: in isopropanol, 313.15 K
REPORTED_PROPERTY: solubility (mole fraction)
A bare number is all that is needed in reply.

What does the record list as solubility (mole fraction) for `COc1cc(/C=C/C(=O)CC(=O)/C=C/c2ccc(O)c(OC)c2)ccc1O` ?
0.00357

====

Conditions: in water, 278.15 K
REPORTED_PROPERTY: solubility (mole fraction)
A bare number is all that is needed in reply.

What does the record list as solubility (mole fraction) for `COc1cc(/C=C/C(=O)CC(=O)/C=C/c2ccc(O)c(OC)c2)ccc1O` ?
8.34e-09

====

Conditions: in water, 283.15 K
REPORTED_PROPERTY: solubility (mole fraction)
A bare number is all that is needed in reply.

What does the record list as solubility (mole fraction) for `COc1cc(/C=C/C(=O)CC(=O)/C=C/c2ccc(O)c(OC)c2)ccc1O` ?
1.16e-08

====

Details: in ethanol, 283.15 K
REPORTED_PROPERTY: solubility (mole fraction)
A bare number is all that is needed in reply.

What does the record list as solubility (mole fraction) for `COc1cc(/C=C/C(=O)CC(=O)/C=C/c2ccc(O)c(OC)c2)ccc1O` ?
0.000497

====

Details: in isopropanol, 293.15 K
REPORTED_PROPERTY: solubility (mole fraction)
A bare number is all that is needed in reply.

What does the record list as solubility (mole fraction) for `COc1cc(/C=C/C(=O)CC(=O)/C=C/c2ccc(O)c(OC)c2)ccc1O` ?
0.00219

====

Details: in ethanol, 298.15 K
REPORTED_PROPERTY: solubility (mole fraction)
A bare number is all that is needed in reply.

What does the record list as solubility (mole fraction) for `COc1cc(/C=C/C(=O)CC(=O)/C=C/c2ccc(O)c(OC)c2)ccc1O` ?
0.000769

====

Conditions: in n-propanol, 293.15 K
REPORTED_PROPERTY: solubility (mole fraction)
A bare number is all that is needed in reply.

What does the record list as solubility (mole fraction) for `COc1cc(/C=C/C(=O)CC(=O)/C=C/c2ccc(O)c(OC)c2)ccc1O` ?
0.00325

====

Settings: in propylene glycol, 308.15 K
REPORTED_PROPERTY: solubility (mole fraction)
A bare number is all that is needed in reply.

What does the record list as solubility (mole fraction) for `COc1cc(/C=C/C(=O)CC(=O)/C=C/c2ccc(O)c(OC)c2)ccc1O` ?
0.00161

====

Details: in water, 288.15 K
REPORTED_PROPERTY: solubility (mole fraction)
A bare number is all that is needed in reply.

What does the record list as solubility (mole fraction) for `COc1cc(/C=C/C(=O)CC(=O)/C=C/c2ccc(O)c(OC)c2)ccc1O` ?
1.59e-08

====

Details: in ethanol, 303.15 K
REPORTED_PROPERTY: solubility (mole fraction)
A bare number is all that is needed in reply.

What does the record list as solubility (mole fraction) for `COc1cc(/C=C/C(=O)CC(=O)/C=C/c2ccc(O)c(OC)c2)ccc1O` ?
0.000888

====

Details: in water, 308.15 K
REPORTED_PROPERTY: solubility (mole fraction)
A bare number is all that is needed in reply.

What does the record list as solubility (mole fraction) for `COc1cc(/C=C/C(=O)CC(=O)/C=C/c2ccc(O)c(OC)c2)ccc1O` ?
5.38e-08

====

Details: in ethanol, 308.15 K
REPORTED_PROPERTY: solubility (mole fraction)

What does the record list as solubility (mole fraction) for `COc1cc(/C=C/C(=O)CC(=O)/C=C/c2ccc(O)c(OC)c2)ccc1O` ?
0.00101

====

Details: in isopropanol, 278.15 K
REPORTED_PROPERTY: solubility (mole fraction)
A bare number is all that is needed in reply.

What does the record list as solubility (mole fraction) for `COc1cc(/C=C/C(=O)CC(=O)/C=C/c2ccc(O)c(OC)c2)ccc1O` ?
0.00146

====

Details: in isopropanol, 283.15 K
REPORTED_PROPERTY: solubility (mole fraction)
A bare number is all that is needed in reply.

What does the record list as solubility (mole fraction) for `COc1cc(/C=C/C(=O)CC(=O)/C=C/c2ccc(O)c(OC)c2)ccc1O` ?
0.0017

====

Settings: in ethanol, 293.15 K
REPORTED_PROPERTY: solubility (mole fraction)

What does the record list as solubility (mole fraction) for `COc1cc(/C=C/C(=O)CC(=O)/C=C/c2ccc(O)c(OC)c2)ccc1O` ?
0.000662

====

Conditions: in propylene glycol, 288.15 K
REPORTED_PROPERTY: solubility (mole fraction)
A bare number is all that is needed in reply.

What does the record list as solubility (mole fraction) for `COc1cc(/C=C/C(=O)CC(=O)/C=C/c2ccc(O)c(OC)c2)ccc1O` ?
0.000967

====

Conditions: in water, 298.15 K
REPORTED_PROPERTY: solubility (mole fraction)
A bare number is all that is needed in reply.

What does the record list as solubility (mole fraction) for `COc1cc(/C=C/C(=O)CC(=O)/C=C/c2ccc(O)c(OC)c2)ccc1O` ?
2.94e-08

====

Conditions: in isopropanol, 298.15 K
REPORTED_PROPERTY: solubility (mole fraction)
A bare number is all that is needed in reply.

What does the record list as solubility (mole fraction) for `COc1cc(/C=C/C(=O)CC(=O)/C=C/c2ccc(O)c(OC)c2)ccc1O` ?
0.00252

====

Details: in isopropanol, 308.15 K
REPORTED_PROPERTY: solubility (mole fraction)
A bare number is all that is needed in reply.

What does the record list as solubility (mole fraction) for `COc1cc(/C=C/C(=O)CC(=O)/C=C/c2ccc(O)c(OC)c2)ccc1O` ?
0.00317

====

Conditions: in isopropanol, 288.15 K
REPORTED_PROPERTY: solubility (mole fraction)
A bare number is all that is needed in reply.

What does the record list as solubility (mole fraction) for `COc1cc(/C=C/C(=O)CC(=O)/C=C/c2ccc(O)c(OC)c2)ccc1O` ?
0.00194

====

Conditions: in propylene glycol, 278.15 K
REPORTED_PROPERTY: solubility (mole fraction)
A bare number is all that is needed in reply.

What does the record list as solubility (mole fraction) for `COc1cc(/C=C/C(=O)CC(=O)/C=C/c2ccc(O)c(OC)c2)ccc1O` ?
0.000715

====

Settings: in n-propanol, 288.15 K
REPORTED_PROPERTY: solubility (mole fraction)
A bare number is all that is needed in reply.

What does the record list as solubility (mole fraction) for `COc1cc(/C=C/C(=O)CC(=O)/C=C/c2ccc(O)c(OC)c2)ccc1O` ?
0.00291

====

Details: in n-propanol, 298.15 K
REPORTED_PROPERTY: solubility (mole fraction)
A bare number is all that is needed in reply.

What does the record list as solubility (mole fraction) for `COc1cc(/C=C/C(=O)CC(=O)/C=C/c2ccc(O)c(OC)c2)ccc1O` ?
0.0036
